# Assay procedure: yeast display, Sf9 membrane polyspecificity reagent, FACS + sequencing; frameworks hold sequencing errors
Measurement label: polyreactivity (PSR sort gate)

- Macromolecule sequence: "QVQLVESGGGLVQAGGSLRLSCAASGSTFPRYAMGWYRQAPGKERELVASITSDGGSTYYADSVKGRFTISRDNAKNTVYLQMNSLKPEDTAVYYCNKVPYRGYRRYGYWGQGTQVTVSS"
  polyreactivity (PSR sort gate): "high polyreactivity"
- Macromolecule sequence: "QVQLVQSGGGLVQAGGSLRLSCAASGLIFTTNPMGWYRQAPGKERQFVAAISPSGGSTYYADSVKGRFTISRDNAKNTVYLQMNCLKPEDTAVYSCGARYSPVWHKYYYWGQGTQVTVSS"
  polyreactivity (PSR sort gate): "high polyreactivity"
- Macromolecule sequence: "QVQLVESGGGLVQAGSSLRLSCAASGSTFVNNAMGWYRQAPGKERELVAAITSGGSTNYADSVKGRFTISRDNAKNTVYLQMNSLKPEDTAVYYCNADGDSWYTGIPAVSHGYWGQGTQVTVSS"
  polyreactivity (PSR sort gate): "low polyreactivity"
- Macromolecule sequence: "QVQLVESGGGLVQAGGSHRLSCAASGRIIGYNPMGWYRQAPGKERELVASIRYSGGSTYYADSVKGRFTISRDNAKNPVYLQMNSLKPEDTAVYYCATRVTYRRRFDYWGQGTQVTVSS"
  polyreactivity (PSR sort gate): "high polyreactivity"
- Macromolecule sequence: "QVQLVESGGGLVQAGGSLRLSCAASGRTFADYGMGWYRQAPGKERELVAAITSSGGSTYYADSVKGRFTISRDNAKNTVYLQMNSLKPEDTAVYYCAAQQSPSVDYWGQGTQVTVTS"
  polyreactivity (PSR sort gate): "low polyreactivity"

Here is the next item to consider.
Query block: # polyreactivity (PSR sort gate) lookup, item QVQLVESGGGLVQAGGSLRLSCAASGSIFQDNTMGWYRQAPGKERELVAAISWSATSTYYADSVTGRFSISRDNAKNTVYLQMNRLKPEDTAVYDCAAGRSYRRYAYYYWGQGTQVTVSS
Result block: high polyreactivity

----------
# Assay procedure: yeast display, Sf9 membrane polyspecificity reagent, FACS + sequencing; frameworks hold sequencing errors
Measurement label: polyreactivity (PSR sort gate)

- Macromolecule sequence: "QVQLQESGGGLVQAGGSLRLSCAASGSISRLDYMGWYRQPSGKERELVAAIDNGSTTYYADSVKGRLTISRDNAKYTVYLQMNSLKPEDTAVYFCAAVRGRGGTHAYWGQGTQVTVSG"
  polyreactivity (PSR sort gate): "low polyreactivity"
- Macromolecule sequence: "QDQHVESAGGVVQTGGSLRLSGAATGSIFGEYAMGWYRQPPGQEREFVADITRSDGSTYYADSVKGRFTISRDHAKNTVYFQMNSMKPEYTAVYYCAADSVLDRPVLYLGPWYLGDYWGQGTLVTVSS"
  polyreactivity (PSR sort gate): "low polyreactivity"
- Macromolecule sequence: "QVQLVESGGGLVQAGGSLRLSCAASGSTFDTYAMGWYRQAPGKERELVAAISRSGTSTYYADSVKGRFTISRDNAKNTVYLQMKSLKPEDTAVYYCAAYGPRVNGEIGREYYYWGQGTQVTVSS"
  polyreactivity (PSR sort gate): "low polyreactivity"
- Macromolecule sequence: "QVQLVESGGGLVQAGGSLRLSCAASGNIFVPNAMGWYRQAPGKERGLVAAIRRGGSTNYADSVKGRFTISRDNAKNNVYLQMNSLKPEDTGVYYCARSRVSFTDLEGYYWGQGTQVTVSS"
  polyreactivity (PSR sort gate): "low polyreactivity"
- Macromolecule sequence: "QVQLVESGGGLVQAGGSLRLSCAASGRTFSRYAMGWYRQSPGKERELVAAITSGGGSTYYADSVKGRFTISRDNAKNTVYLQMNSLKPEDTAVYYCAVRSAPIVYVYVASWWSLYDYWGQGTQVTVSS"
  polyreactivity (PSR sort gate): "low polyreactivity"

Query block: Could you tell me which polyreactivity (PSR sort gate) is on file for QVQIVESGGGLFQAGGRLPLSCAASGSSFKINDMGWYRHAPGKERELVATITWSTGTTYYADSVKGLFTISRYNAKNTVYLKMNSLKPEYTAVYYCAADYCSYGYVLFDYWGQGTQVTVSS ?
Result block: low polyreactivity

Query block: So what's the measured polyreactivity (PSR sort gate) for this one? QVQLVESGGGLVQAGGTLRLSCAASGSIFGRNTMGWYRQAPGKERELVAAINSGGGTYYADSVKGRFTISRDNAKNTVYLQMNSLKPEDTAVYYCAKASRAVRHGDYWGQRTQVTVSS
Result block: low polyreactivity

Query block: Form field: reported polyreactivity (PSR sort gate) of QVQLVESGGGLVQAGGSLRLSCAASGFIFKNYAMGWYRQAPGKERELVAAITSSGGNTYYADSVKGRFTISRDNAKNTVYLQMNSLKPEDTAVYYCNARFRTLYWGQGTQVTVSS
Result block: high polyreactivity

Query block: I would be grateful if you could share the reported polyreactivity (PSR sort gate) for QVQLVESGGGLVQAGGSLRLSCAASGRTFLQYAMGWYRQAPRQERDLFATISFSGGSTYYADSVKGRITISRDNAKNTVYLLMNSLKPEDTAVYDCAKSQYRGRVYTGYDYWGQGTQVTVSA .
Result block: low polyreactivity

Query block: Please report the recorded polyreactivity (PSR sort gate) for QVQLVESGGGLVQAGGSLRLSCAASGIIFYIYTMGWYRQAPGKERELVAAINRSGSRTYYADSVKGRFTISRDYAKNNVYLQMNSLKPEDTAVYYCAAGTGSRDDYWGQGTQVTVST .
Result block: high polyreactivity

Query block: Quick one: polyreactivity (PSR sort gate) for QVQLVESGGGLVQAGGSLRLSCAASGSTFDDYAMGWYRQAPGKERELVAAIYWSSGRTYYADSVKGRFTISRDNAKNTVYLQMNSLKPEDTAVYYCAARNRYDRLRYYYWGQGTQVTVSS ?
Result block: high polyreactivity

----------
# Assay procedure: yeast display, Sf9 membrane polyspecificity reagent, FACS + sequencing; frameworks hold sequencing errors
Measurement label: polyreactivity (PSR sort gate)

Here are 4 sequences together with their reported answers.
- Macromolecule sequence: "QVQLVESGGGLVQAGGSLRLSCAASGRIFGRNAMGWYRQAPGKERELVAAISSSGGRTYYADSVKGRFTISRDNAKNTVYLQMNSLKPEDTAVYYCAAVGSLYYYRYDYWGQGTQVTVSS"
  polyreactivity (PSR sort gate): "high polyreactivity"
- Macromolecule sequence: "QVQLVESWVGLVQAGGSLRLSCAASGNTFKYYDMGWYRQAPGKERELVATISRTAGSTYYADSVKGRFSISRDYAKNTVYLQMNSLKPEDTAVYYCNKDRGHPFKYDYWGQGTQVTVSS"
  polyreactivity (PSR sort gate): "low polyreactivity"
- Macromolecule sequence: "QVQLVESGGGLVQAGGSLRLSCAASVRIFQYYVMGWYIQAPGKERELVAAITSGGGTKYADSVKGRFTISRDNAKNTVYLQMNSLIPEDTAVYFCAAAWFDQYSRYDYWGQGTQVTVSS"
  polyreactivity (PSR sort gate): "low polyreactivity"
- Macromolecule sequence: "QVQLVESGGGLVQAGGSLRLSCAASGRIFGINAMGSYRQAPGKERELVAAINWSGGSTYYADSVKGRFTISRDNAKNTVYLQMNSLKPEDTAVYYCAAQKYKRVGYWGQGTQVTVSS"
  polyreactivity (PSR sort gate): "high polyreactivity"

Turning to the following sequence.
Query block: What polyreactivity (PSR sort gate) value was documented for this sequence, QVQLVESGGGLVQAAGSLRLSCAASGITSRFYVMGWYRQAPGKERESVAAISTRGTSTYYADSVKGRLPISRDNAKNTVYLQMNSLKPEDTAVYYCAAVGGYPYQYPYGSWGQGSQVTVSS ?
Result block: high polyreactivity

----------
# Assay procedure: yeast display, Sf9 membrane polyspecificity reagent, FACS + sequencing; frameworks hold sequencing errors

- Macromolecule sequence: "QVQLVESGGGLVQAGGSLRLSCAASGLIFYTYAMGWYRQAPGKERELVATISGRGGSTYYADSVKGRFTISRDNAKNTVYLQMNSLKPEDTAVYYCNVVPSTYYQYDYWGQGTQVTVSS"
  polyreactivity (PSR sort gate): "high polyreactivity"
- Macromolecule sequence: "QVQLVESGGGLVQAGGSLRLSCAASGRIFPWYAMGWYRQAPGKERELVATITRGTSTNYADSVKGRFTISRDNAKNTVYLQMNSLKPEDTAVYYCAASSSRRRYYYWGQGTQVTVSS"
  polyreactivity (PSR sort gate): "high polyreactivity"

----------
# Assay procedure: yeast display, Sf9 membrane polyspecificity reagent, FACS + sequencing; frameworks hold sequencing errors

- Macromolecule sequence: "QVQLVESGGGLVQAGGSLRLSCAASGRTFYTNGMGWYRQAPGKEREFVAGITYRGGGTYYADSVKGRFTISRDNAKNTVYLQMNSLKPEDTAVYYCNTRWILGRRFYYWGQGTQVTVSS"
  polyreactivity (PSR sort gate): "high polyreactivity"
- Macromolecule sequence: "QVQLVESGGGLVQAGGSLRLSCADSGRTFYHDTMGWYRQAPGKERELVARITRRVGSTYYADSVKGRFTISRDNAKNTVYLQMNSLKPEDTAVYYCNAKSGLYRYLLDYWGQGTQVTVSS"
  polyreactivity (PSR sort gate): "high polyreactivity"
- Macromolecule sequence: "QVQLVESGGGLVQAGGSLRLTCAASGRTFPRYAMGWYRQAPGKERELVAAINSGGSTYYADSVKGRFTISRDNAKNSVYLQMNSLKPEDTAVYYCAAEGYTLGDGVYWIGPYDYWGQGTQLTVSS"
  polyreactivity (PSR sort gate): "high polyreactivity"

Recorded values, source the nanobody polyreactivity screen of Harvey et al. (2022).
